Where do the numbers come from? From ChEMBL document CHEMBL5154647.

Experiment: AUC (0 to t) in Sprague-Dawley rat at 20 mg/kg, po measured upto 10 hrs by LC/MS/MS analysis
Format: ADME, organism-based
Set-up: time < 10 hrs, dose 20 mg/kg, route po
Conditions: in vivo
So I've got a bunch of compounds here, and I need their AUC(0-t) at 10 h values.
Numbers only, in ng·h/mL.

>>> measurement("COc1ccc2c(c1)[C@H]1[C@H](CCN1CCc1ccc(Cl)cc1)[C@H]1CCCN21 (racemic)")
469

Alright, here's another compound for you.
Tell me the measured AUC(0-t) at 10 h of COc1ccc2c(c1)[C@H]1[C@H](CCN1Cc1ccc3c(ccn3C)c1)[C@H]1CCCN21 (racemic) , please.
561
